# measuredOn: CTNNB1
# conditionContext: ASO; further: test concentration or dose not given here
These antisense oligonucleotides have a phosphorothioate backbone; sugars and methylation of C are not fully specified.
parameter: remaining target (mRNA or protein) (fraction of control)

sequenceInput	obsValue
TTGTCCACGCTGGATTTTCA	0.52
GTTGTATGGTATACTTCAAA	0.69
CCCATAGGAAACTCAGCTTG	0.29
TAGCCATTGTCCACGCTGGA	0.23
AGGTCCCAGCGGTACAACGA	0.21
AGCCCACCAGCTAAACGCAC	0.4
GTCCTGAGCAAGTTCACAGA	0.37
TGAGTAGCCATTGTCCACGC	0.35

====

# measuredOn: NCOA2
# conditionContext: ASO
These antisense oligonucleotides have a phosphorothioate backbone; sugars and methylation of C are not fully specified.
Reported remaining target (mRNA or protein) (fraction of control) values for a set of sequences
parameter: remaining target (mRNA or protein) (fraction of control)

sequenceInput	modifier	obsValue
CCAACATGCAAGATGCTA	=	0.83
CATCCCACTCATCTTGAA	≥	1
AAAACTGACTGGGTGGGA	≥	1
CTCTGTGAAATTCGCAGT	≥	1
CAGCAATATTTCCGTGTT	=	0.88
ATTCTCTTTCTTCTTGGG	=	0.71
